Would you mind telling me the reported remaining activity at 100 µM of each entry?
- assayedTarget: PKCγ (Homo sapiens)
- procedureDetails: Kinase profiling PKCγ
- Assay type: biochemical
- runConditions: 100 micromolar inhibitor concentration; 100 is no change; read-out: residual kinase activity, PKCγ
Number only, in %; omit the unit.

Give recorded remaining activity at 100 µM with PKCγ (Homo sapiens) for the following molecule: CC(=O)Nc1nc2cc(C(F)(F)F)ccc2s1 106

Try this molecule next: CC(=O)Nc1nc2ccc(C#N)cc2s1 83

Also need CC(=O)Nc1nc2ccc(C(F)(F)F)cc2s1 , thanks. 53

Param item: CC(=O)Nc1nc2cc(F)ccc2s1 102

Would you mind doing COc1ccc2sc(NC(C)=O)nc2c1 as well? 103

And CC(=O)Nc1nc2ccc(O)cc2s1 ? 76

###

- assayedTarget: LKB1 (Homo sapiens)
- procedureDetails: Kinase profiling LKB1
- Assay type: biochemical
- runConditions: 100 micromolar inhibitor concentration; 100 is no change
- Excerpt: Any value less that 25 is considered to be highly significant inhibition.
Param threshold (100) applies to residual kinase activity, LKB1; output t when value >= threshold, f when value < threshold.

Tell me whether residual kinase activity, LKB1 is at least 100 here: O=C(Nc1nc2cc(O)ccc2s1)c1ccncc1 f

Entry CC(=O)Nc1nc2cc(C)ccc2s1 please f

// same read-out, input: O=C(Nc1nc2cc(O)ccc2s1)c1ccccn1 f

What do we get for COc1ccc2nc(NC(=O)c3ccccc3)sc2c1 ? t

Follow-up entry: CC(=O)Nc1nc2ccc(F)cc2s1 f

# repeat for N#Cc1ccc2nc(NC(=O)c3ccccc3)sc2c1 t

How about O=C(Nc1nc2ccc(O)cc2s1)c1ccccc1 ? f

What would you report for COC(=O)c1cccc(C(=O)Nc2nc3ccc(F)cc3s2)c1 ? f

Request: O=C(Nc1nc2ccc(O)cc2s1)c1ccncc1 f

###

Give remaining activity at 100 µM for every item shown.
- assayedTarget: UniProt:Q16584
- Sequence (Q16584 whole entry, species assumed): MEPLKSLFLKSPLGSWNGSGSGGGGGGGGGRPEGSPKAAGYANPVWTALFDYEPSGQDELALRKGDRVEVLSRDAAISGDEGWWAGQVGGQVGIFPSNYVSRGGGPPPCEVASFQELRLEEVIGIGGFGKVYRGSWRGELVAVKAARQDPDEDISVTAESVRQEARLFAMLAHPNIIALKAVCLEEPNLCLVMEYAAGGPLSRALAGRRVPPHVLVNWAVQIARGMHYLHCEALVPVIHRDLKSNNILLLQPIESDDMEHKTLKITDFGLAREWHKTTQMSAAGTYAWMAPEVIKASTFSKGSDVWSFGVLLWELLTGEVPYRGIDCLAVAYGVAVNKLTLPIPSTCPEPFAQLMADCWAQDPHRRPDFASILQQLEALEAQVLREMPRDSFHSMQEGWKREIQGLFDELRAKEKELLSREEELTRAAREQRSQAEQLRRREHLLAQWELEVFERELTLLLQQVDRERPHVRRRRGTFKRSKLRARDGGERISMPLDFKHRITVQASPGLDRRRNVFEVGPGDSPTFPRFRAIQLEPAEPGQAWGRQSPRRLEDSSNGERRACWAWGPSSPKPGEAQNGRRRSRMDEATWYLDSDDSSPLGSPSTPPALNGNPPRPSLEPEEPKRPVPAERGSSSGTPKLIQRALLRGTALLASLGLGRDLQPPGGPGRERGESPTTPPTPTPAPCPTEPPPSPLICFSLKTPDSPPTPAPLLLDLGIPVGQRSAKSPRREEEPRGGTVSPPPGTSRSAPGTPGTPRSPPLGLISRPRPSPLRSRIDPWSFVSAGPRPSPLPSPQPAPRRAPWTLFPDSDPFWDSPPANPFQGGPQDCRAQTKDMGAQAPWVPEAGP
- procedureDetails: Kinase profiling MLK3
- Type: biochemical
- runConditions: 100 micromolar inhibitor concentration; 100 is no change; read-out: residual kinase activity, MLK3
Provide the reading as a plain figure in %.

Would you mind telling me what remaining activity at 100 µM value was observed for CC(=O)Nc1nc2ccc([N+](=O)[O-])cc2s1 [Compound 13-10] ? 54

Param item: CC(=O)Nc1nc2cc(F)ccc2s1 [Compound 03-77] 44

Next: CC(=O)Nc1nc2ccc(C(F)(F)F)cc2s1 [Compound 01-90] 51

Then what about the compound CC(=O)Nc1nc2ccc(C#N)cc2s1 [Compound 01-94] ? 55

Would you kindly repeat that for CC(=O)Nc1nc2cc(C(F)(F)F)ccc2s1 [Compound 03-73] ? 57

Entry CC(=O)Nc1nc2ccc(O)cc2s1 [Compound 01-71] please 15

Input COc1ccc2sc(NC(C)=O)nc2c1 [Compound 03-21] 59

###

- assayedTarget: TBK1 (Homo sapiens, UniProt Q9UHD2)
- Sequence (Q9UHD2 whole entry, species assumed): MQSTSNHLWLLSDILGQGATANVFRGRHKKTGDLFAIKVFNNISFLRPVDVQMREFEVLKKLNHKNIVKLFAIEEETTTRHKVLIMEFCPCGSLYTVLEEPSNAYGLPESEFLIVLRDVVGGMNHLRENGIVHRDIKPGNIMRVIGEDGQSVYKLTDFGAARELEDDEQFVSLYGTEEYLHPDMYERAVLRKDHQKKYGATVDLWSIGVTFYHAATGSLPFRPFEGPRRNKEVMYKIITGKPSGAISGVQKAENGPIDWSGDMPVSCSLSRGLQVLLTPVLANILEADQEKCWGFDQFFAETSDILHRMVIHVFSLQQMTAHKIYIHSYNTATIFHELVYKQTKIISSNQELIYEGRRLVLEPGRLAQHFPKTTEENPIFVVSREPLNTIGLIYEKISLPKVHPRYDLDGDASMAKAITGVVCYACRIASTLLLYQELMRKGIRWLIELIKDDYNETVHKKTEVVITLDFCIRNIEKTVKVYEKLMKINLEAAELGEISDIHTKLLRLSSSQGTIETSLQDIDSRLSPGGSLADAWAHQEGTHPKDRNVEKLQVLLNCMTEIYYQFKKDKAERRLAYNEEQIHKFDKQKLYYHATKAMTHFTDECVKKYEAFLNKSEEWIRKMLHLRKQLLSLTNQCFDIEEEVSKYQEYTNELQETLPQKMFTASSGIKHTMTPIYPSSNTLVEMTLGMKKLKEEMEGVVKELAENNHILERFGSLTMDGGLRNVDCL
- procedureDetails: Kinase profiling TBK1
- Type: biochemical
- runConditions: 100 micromolar inhibitor concentration; 100 is no change
Answer each item with its documented residual kinase activity, TBK1.
Number only, no unit.

Need residual kinase activity, TBK1 of COC(=O)c1cccc(C(=O)Nc2nc3ccc(F)cc3s2)c1 , thanks. 96

Now the same for O=C(Nc1nc2ccc(C(F)(F)F)cc2s1)c1ccccc1 96

// next record O=C(Nc1nc2ccc(O)cc2s1)c1ccncc1 61

Further, for N#Cc1ccc2nc(NC(=O)c3ccccc3)sc2c1 ? 94

Continue with O=C(Nc1nc2ccc(O)cc2s1)c1ccccn1 68

Entry to check: COc1ccc2sc(NC(=O)c3cccc(C(N)=O)c3)nc2c1 98

Try O=C(Nc1nc2ccc(F)cc2s1)c1ccccc1 next. 92

Lookup O=C(Nc1nc2cc(O)ccc2s1)c1ccncc1 80

Please give the result for CC(=O)Nc1nc2ccccc2s1 too. 88

###

- assayedTarget: MST2 (Homo sapiens, UniProt Q13188)
- Sequence (Q13188 whole entry, species assumed): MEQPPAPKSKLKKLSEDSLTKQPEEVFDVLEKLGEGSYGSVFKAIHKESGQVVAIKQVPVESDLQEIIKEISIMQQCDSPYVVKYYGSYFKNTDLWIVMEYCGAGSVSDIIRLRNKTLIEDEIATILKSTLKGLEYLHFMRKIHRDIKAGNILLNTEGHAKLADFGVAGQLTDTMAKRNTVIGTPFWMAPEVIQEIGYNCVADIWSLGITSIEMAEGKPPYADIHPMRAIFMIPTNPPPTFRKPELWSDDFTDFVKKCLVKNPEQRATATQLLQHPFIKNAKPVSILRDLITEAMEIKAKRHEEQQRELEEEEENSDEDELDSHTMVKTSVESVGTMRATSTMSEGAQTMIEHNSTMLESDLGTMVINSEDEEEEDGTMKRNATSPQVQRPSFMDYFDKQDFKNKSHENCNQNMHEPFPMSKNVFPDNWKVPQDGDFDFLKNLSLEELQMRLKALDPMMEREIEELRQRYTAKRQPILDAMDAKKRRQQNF
- procedureDetails: Kinase profiling MST2
- Format: biochemical
- runConditions: 100 micromolar inhibitor concentration; 100 is no change
Decision: residual kinase activity, MST2 compared against 90; not below it gives true (1), below it gives false (0).

hey, is residual kinase activity, MST2 for this one >= 90? O=C(Nc1nc2ccc(O)cc2s1)c1ccccn1 false (0)

Let us now turn to O=C(Nc1nc2cc(O)ccc2s1)c1ccccc1 false (0)

What do you have for O=C(Nc1nc2cc(O)ccc2s1)c1ccncc1 ? false (0)

Could you do the same for O=C(Nc1nc2cc(O)ccc2s1)c1cccnc1 , please? false (0)

Next compound: O=C(Nc1nc2ccc(F)cc2s1)c1ccccc1 true (1)

Try the compound CC(=O)Nc1nc2cc(C)ccc2s1 false (0)

Now try N#Cc1ccc2nc(NC(=O)c3ccccc3)sc2c1 . true (1)

Also COc1ccc2nc(NC(=O)c3ccccc3)sc2c1 ? false (0)

Here is the next compound: COc1ccc2sc(NC(=O)c3ccccc3)nc2c1 true (1)

Then what about the compound COc1ccc2sc(NC(=O)c3cccc(C(N)=O)c3)nc2c1 ? true (1)

// repeat for O=C(Nc1nc2ccc(O)cc2s1)c1ccncc1 and report false (0)

Here is the next compound: O=C(Nc1nc2ccc(O)cc2s1)c1cccnc1 false (0)

And then O=C(Nc1nc2cc(O)ccc2s1)c1ccccn1 , what is it? false (0)

Can you handle O=C(Nc1nc2ccc(C(F)(F)F)cc2s1)c1ccccc1 next? true (1)

Next record, please: O=C(Nc1nc2ccc(O)cc2s1)c1ccccc1 false (0)

Would you kindly repeat that for COC(=O)c1cccc(C(=O)Nc2nc3cc(OC)ccc3s2)c1 ? false (0)

###

- assayedTarget: UniProt:P29317
- Sequence (P29317 24-976, species assumed): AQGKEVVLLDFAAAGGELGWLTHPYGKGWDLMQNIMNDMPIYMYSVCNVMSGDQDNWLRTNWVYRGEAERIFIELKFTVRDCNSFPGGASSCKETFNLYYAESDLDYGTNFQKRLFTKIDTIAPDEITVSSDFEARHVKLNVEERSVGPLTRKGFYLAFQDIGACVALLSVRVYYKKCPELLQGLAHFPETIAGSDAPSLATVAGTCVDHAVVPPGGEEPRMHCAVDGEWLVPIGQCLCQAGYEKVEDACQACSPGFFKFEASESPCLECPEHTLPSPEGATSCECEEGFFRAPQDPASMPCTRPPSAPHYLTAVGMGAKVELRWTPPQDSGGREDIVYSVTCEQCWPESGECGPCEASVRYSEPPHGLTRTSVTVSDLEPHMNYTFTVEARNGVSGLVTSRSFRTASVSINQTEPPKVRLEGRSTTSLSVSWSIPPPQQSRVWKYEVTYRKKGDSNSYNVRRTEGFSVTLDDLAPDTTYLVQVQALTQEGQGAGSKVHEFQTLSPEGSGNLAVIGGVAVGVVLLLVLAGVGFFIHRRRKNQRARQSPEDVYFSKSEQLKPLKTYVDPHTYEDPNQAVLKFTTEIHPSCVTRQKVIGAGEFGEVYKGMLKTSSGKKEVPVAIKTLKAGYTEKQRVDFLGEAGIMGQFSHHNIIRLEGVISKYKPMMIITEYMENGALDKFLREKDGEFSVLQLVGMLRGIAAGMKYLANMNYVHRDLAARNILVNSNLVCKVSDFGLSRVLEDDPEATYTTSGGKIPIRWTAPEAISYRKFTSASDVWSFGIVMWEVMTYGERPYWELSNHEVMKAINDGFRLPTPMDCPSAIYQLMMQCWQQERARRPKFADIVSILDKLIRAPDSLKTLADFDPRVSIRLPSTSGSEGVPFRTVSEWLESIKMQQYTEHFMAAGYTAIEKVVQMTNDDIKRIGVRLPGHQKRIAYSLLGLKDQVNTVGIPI
- procedureDetails: Kinase profiling EPH-A2
- Type: biochemical
- runConditions: 100 micromolar inhibitor concentration; 100 is no change
Decision: residual kinase activity, EPH-A2 >= 90 yields Satisfied, all other cases yield Not satisfied.

Kindly determine if residual kinase activity, EPH-A2 recorded for O=C(Nc1nc2cc(O)ccc2s1)c1ccccn1 is above or exactly 90. Not satisfied

Request: COC(=O)c1cccc(C(=O)Nc2nc3ccc(F)cc3s2)c1 Not satisfied

Proceed to CC(=O)Nc1nc2ccc(F)cc2s1 Satisfied

Likewise for O=C(Nc1nc2ccc(O)cc2s1)c1ccccc1 ? Not satisfied

Repeat with O=C(Nc1nc2cc(O)ccc2s1)c1ccncc1 Not satisfied

Another compound to check: CC(=O)Nc1nc2cc(C)ccc2s1 Satisfied

Now give it for O=C(Nc1nc2ccc(F)cc2s1)c1ccccc1 too. Satisfied

Request: CC(=O)Nc1nc2ccccc2s1 Satisfied

###

- assayedTarget: MINK1 (Homo sapiens)
- Sequence (Q8N4C8 whole entry, species assumed): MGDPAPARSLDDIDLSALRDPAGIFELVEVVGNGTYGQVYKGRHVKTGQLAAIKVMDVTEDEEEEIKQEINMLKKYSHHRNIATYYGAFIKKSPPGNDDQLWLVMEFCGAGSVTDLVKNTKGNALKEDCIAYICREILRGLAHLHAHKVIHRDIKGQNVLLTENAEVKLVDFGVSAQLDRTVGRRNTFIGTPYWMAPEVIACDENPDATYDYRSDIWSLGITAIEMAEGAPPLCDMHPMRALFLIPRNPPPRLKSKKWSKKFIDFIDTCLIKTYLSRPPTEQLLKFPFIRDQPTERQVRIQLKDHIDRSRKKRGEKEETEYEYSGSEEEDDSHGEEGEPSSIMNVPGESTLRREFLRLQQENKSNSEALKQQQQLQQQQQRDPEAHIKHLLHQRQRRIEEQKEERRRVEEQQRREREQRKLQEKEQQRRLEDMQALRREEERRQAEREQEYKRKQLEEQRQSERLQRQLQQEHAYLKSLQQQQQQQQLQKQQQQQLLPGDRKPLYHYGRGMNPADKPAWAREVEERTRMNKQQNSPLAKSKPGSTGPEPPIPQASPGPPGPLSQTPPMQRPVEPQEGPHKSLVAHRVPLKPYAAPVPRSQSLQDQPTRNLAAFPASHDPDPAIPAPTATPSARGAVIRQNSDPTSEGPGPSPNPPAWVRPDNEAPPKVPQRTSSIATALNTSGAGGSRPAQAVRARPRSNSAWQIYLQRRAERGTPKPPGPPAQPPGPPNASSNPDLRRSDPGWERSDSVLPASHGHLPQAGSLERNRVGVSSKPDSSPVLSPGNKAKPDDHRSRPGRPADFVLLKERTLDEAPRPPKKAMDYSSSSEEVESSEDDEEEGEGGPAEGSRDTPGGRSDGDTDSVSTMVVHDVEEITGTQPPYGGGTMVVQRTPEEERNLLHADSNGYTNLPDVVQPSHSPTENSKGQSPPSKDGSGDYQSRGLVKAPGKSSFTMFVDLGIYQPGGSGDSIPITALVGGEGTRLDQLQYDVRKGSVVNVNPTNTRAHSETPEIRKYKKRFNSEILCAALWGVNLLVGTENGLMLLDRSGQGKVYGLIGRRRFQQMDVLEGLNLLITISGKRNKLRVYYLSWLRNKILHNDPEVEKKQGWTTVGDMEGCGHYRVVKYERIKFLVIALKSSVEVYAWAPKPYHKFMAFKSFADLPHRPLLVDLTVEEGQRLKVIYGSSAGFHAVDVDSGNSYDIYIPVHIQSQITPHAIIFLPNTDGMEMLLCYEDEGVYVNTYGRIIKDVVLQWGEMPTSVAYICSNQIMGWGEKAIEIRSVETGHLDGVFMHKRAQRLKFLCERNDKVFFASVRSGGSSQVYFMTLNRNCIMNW
- procedureDetails: Kinase profiling MINK1
- Assay type: biochemical
- runConditions: 100 micromolar inhibitor concentration; 100 is no change
Respond with fulfilled for residual kinase activity, MINK1 values of 60 and above, not fulfilled for values below.

Identify whether the reported residual kinase activity, MINK1 of the following compound is 60 or greater: CC(=O)Nc1nc2ccccc2s1 [Compound 03-32] fulfilled

Try this compound too: O=C(Nc1nc2cc(O)ccc2s1)c1cccnc1 [Compound 03-33] not fulfilled

Similarly, CC(=O)Nc1nc2cc(C)ccc2s1 [Compound 03-76] ? fulfilled

Query O=C(Nc1nc2ccc(O)cc2s1)c1cccnc1 [Compound 08-44] next not fulfilled

Another compound to check: O=C(Nc1nc2cc(O)ccc2s1)c1ccncc1 [Compound 03-11] fulfilled

Another compound: O=C(Nc1nc2ccc(O)cc2s1)c1ccccn1 [Compound 03-12] not fulfilled

###

Would you mind telling me the reported residual kinase activity, ROCK 2 of each entry?
- assayedTarget: ROCK 2 (Homo sapiens)
- procedureDetails: Kinase profiling ROCK 2
- Type: biochemical
- runConditions: 100 micromolar inhibitor concentration; 100 is no change
A bare number is all that is needed in reply.

So what residual kinase activity, ROCK 2 did CC(=O)Nc1ccccc1C(=O)Nc1nc2ccc(O)cc2s1 get with ROCK 2 (Homo sapiens)? 22

Also need O=C(Nc1nc2ccc(F)cc2s1)c1ccccc1 , thanks. 95

What do we get for CC(=O)Nc1ccc(C(=O)Nc2nc3ccc(O)cc3s2)cc1 ? 32

Param item: COc1ccc2sc(NC(=O)c3cccc(C(N)=O)c3)nc2c1 68

Okay, and O=C(Nc1nc2ccc(O)cc2s1)c1ccncc1 ? 43

Next compound: COc1ccc2sc(NC(=O)c3cccc(NC(C)=O)c3)nc2c1 29

Entry to check: O=C(Nc1nc2ccc(O)cc2s1)c1cccnc1 42

Cool, now O=C(Nc1nc2ccc(O)cc2s1)c1ccccc1 11

Thanks! And CC(=O)NC(C)C(=O)Nc1nc2ccc(C(F)(F)F)cc2s1 (stereo not shown) ? 80

Now consider O=C(Nc1nc2cc(O)ccc2s1)c1ccccn1 . 96

How about COC(=O)c1cccc(C(=O)Nc2nc3ccc(F)cc3s2)c1 ? 86

Now the same for COc1ccc2sc(NC(=O)c3ccccc3)nc2c1 54

Would you kindly repeat that for O=C(Nc1nc2ccc(O)cc2s1)c1ccccn1 ? 68

Another compound to check: CC(=O)Nc1ccc(C(=O)Nc2nc3cc(O)ccc3s2)cc1 38

And CC(=O)Nc1nc2cc(C)ccc2s1 ? 79

Please give the result for CC(=O)Nc1cccc(C(=O)Nc2nc3cc(O)ccc3s2)c1 too. 11

Thanks! And N#Cc1ccc2nc(NC(=O)c3ccccc3)sc2c1 ? 125

Subsequent entry: O=C(Nc1nc2ccc(C(F)(F)F)cc2s1)c1ccccc1 97

How about CC(=O)Nc1nc2ccccc2s1 ? 91

O=C(Nc1nc2cc(O)ccc2s1)c1cccnc1 ? 53

// repeat for COC(=O)c1cccc(C(=O)Nc2nc3cc(OC)ccc3s2)c1 and report 52

How about this compound: CC(=O)Nc1cccc(C(=O)Nc2nc3ccc(O)cc3s2)c1 10
